Hello, the source for this data is patent EP1285920A1, in case you need it.

Listing of recorded Survivors by entry.
System: HCT116 carcinoma
condition.label: number of 5 mice; i.v. qd x 1 at MTD, Day 60; doses as in E3
parameter.measured: Survivors

- compound: "CCC(=O)O[C@H]1C(=O)[C@@]2(C)[C@H]([C@H](OC(=O)c3ccccc3)[C@]3(O)C[C@H](OC(=O)[C@H](O)[C@@H](NC(=O)c4ccccc4)C4CC4)C(C)=C1C3(C)C)[C@]1(OC(C)=O)CO[C@@H]1C[C@@H]2O [Compound 0706]"
  target.of.assay: "HCT116 carcinoma"
  parameter.measured: "Survivors"
  value.reported: 5
- compound: "CC(=O)O[C@H]1C(=O)[C@@]2(C)[C@H]([C@H](OC(=O)c3ccccc3)[C@]3(O)C[C@H](OC(=O)[C@H](O)[C@@H](NC(=O)c4ccccc4)c4ccccc4)C(C)=C1C3(C)C)[C@]1(OC(C)=O)CO[C@@H]1C[C@@H]2O [Taxol, paclitaxel, reference compound]"
  target.of.assay: "HCT116 carcinoma"
  parameter.measured: "Survivors"
  value.reported: 1
- compound: "CCC(=O)OC1C(=O)C2(C)C(O)CC3OCC3(OC(C)=O)C2C(OC(=O)c2ccccc2)C2(O)CC(OC(=O)C(O)C(NC(=O)c3ccccc3)c3cccs3)C(C)=C1C2(C)C (stereo not shown) [Compound 0687]"
  target.of.assay: "HCT116 carcinoma"
  parameter.measured: "Survivors"
  value.reported: 5
- compound: "CCC(=O)O[C@H]1C(=O)[C@@]2(C)[C@H]([C@H](OC(=O)c3ccccc3)[C@]3(O)C[C@H](OC(=O)[C@H](O)[C@@H](NC(=O)OC(C)(C)C)c4ccccn4)C(C)=C1C3(C)C)[C@]1(OC(C)=O)CO[C@@H]1C[C@@H]2O [Compound 0503]"
  target.of.assay: "HCT116 carcinoma"
  parameter.measured: "Survivors"
  value.reported: 5
- compound: "CC(=O)O[C@@]12CO[C@@H]1C[C@H](O)[C@@]1(C)C(=O)[C@H](OC(=O)C3CC3)C3=C(C)[C@@H](OC(=O)[C@H](O)[C@@H](NC(=O)c4ccccc4)c4ccco4)C[C@@](O)([C@@H](OC(=O)c4ccccc4)[C@H]21)C3(C)C [Compound 0908]"
  target.of.assay: "HCT116 carcinoma"
  parameter.measured: "Survivors"
  value.reported: 5
- compound: "CCCC(=O)O[C@H]1C(=O)[C@@]2(C)[C@H]([C@H](OC(=O)c3ccccc3)[C@]3(O)C[C@H](OC(=O)[C@H](O)[C@@H](NC(=O)OC(C)(C)C)c4ccco4)C(C)=C1C3(C)C)[C@]1(OC(C)=O)CO[C@@H]1C[C@@H]2O [Compound 0983]"
  target.of.assay: "HCT116 carcinoma"
  parameter.measured: "Survivors"
  value.reported: 3
- compound: "CCC(=O)O[C@H]1C(=O)[C@@]2(C)[C@H]([C@H](OC(=O)c3ccccc3)[C@]3(O)C[C@H](OC(=O)[C@H](O)[C@@H](NC(=O)c4ccccc4)c4ccoc4)C(C)=C1C3(C)C)[C@]1(OC(C)=O)CO[C@@H]1C[C@@H]2O [Compound 0670]"
  target.of.assay: "HCT116 carcinoma"
  parameter.measured: "Survivors"
  value.reported: 3
- compound: "CCC(=O)O[C@H]1C(=O)[C@@]2(C)[C@H]([C@H](OC(=O)c3ccccc3)[C@]3(O)C[C@H](OC(=O)[C@H](O)[C@@H](NC(=O)OC(C)(C)C)c4ccco4)C(C)=C1C3(C)C)[C@]1(OC(C)=O)CO[C@@H]1C[C@@H]2O [Compound 0536]"
  target.of.assay: "HCT116 carcinoma"
  parameter.measured: "Survivors"
  value.reported: 5
- compound: "CCCC(=O)O[C@H]1C(=O)[C@@]2(C)[C@H]([C@H](OC(=O)c3ccccc3)[C@]3(O)C[C@H](OC(=O)[C@H](O)[C@@H](NC(=O)OC(C)(C)C)c4ccccn4)C(C)=C1C3(C)C)[C@]1(OC(C)=O)CO[C@@H]1C[C@@H]2O [Compound 0951]"
  target.of.assay: "HCT116 carcinoma"
  parameter.measured: "Survivors"
  value.reported: 5
- compound: "CCCC(=O)O[C@H]1C(=O)[C@@]2(C)[C@H]([C@H](OC(=O)c3ccccc3)[C@]3(O)C[C@H](OC(=O)[C@H](O)[C@@H](NC(=O)OC(C)(C)C)c4ccoc4)C(C)=C1C3(C)C)[C@]1(OC(C)=O)CO[C@@H]1C[C@@H]2O [Compound 0999]"
  target.of.assay: "HCT116 carcinoma"
  parameter.measured: "Survivors"
  value.reported: 5
